- tested_target: T1, Flt-IgG (human, UniProt P17948 27-758, limits assumed)
- T1 construct: Only described as 'a chimeric Flt-human Fc molecule'; captured by rabbit F(ab')2 to human IgG Fc; also called chimeric Flt-human Fc molecule; not shown: human IgG Fc
- T1 sequence (P17948 27-758 limits assumed): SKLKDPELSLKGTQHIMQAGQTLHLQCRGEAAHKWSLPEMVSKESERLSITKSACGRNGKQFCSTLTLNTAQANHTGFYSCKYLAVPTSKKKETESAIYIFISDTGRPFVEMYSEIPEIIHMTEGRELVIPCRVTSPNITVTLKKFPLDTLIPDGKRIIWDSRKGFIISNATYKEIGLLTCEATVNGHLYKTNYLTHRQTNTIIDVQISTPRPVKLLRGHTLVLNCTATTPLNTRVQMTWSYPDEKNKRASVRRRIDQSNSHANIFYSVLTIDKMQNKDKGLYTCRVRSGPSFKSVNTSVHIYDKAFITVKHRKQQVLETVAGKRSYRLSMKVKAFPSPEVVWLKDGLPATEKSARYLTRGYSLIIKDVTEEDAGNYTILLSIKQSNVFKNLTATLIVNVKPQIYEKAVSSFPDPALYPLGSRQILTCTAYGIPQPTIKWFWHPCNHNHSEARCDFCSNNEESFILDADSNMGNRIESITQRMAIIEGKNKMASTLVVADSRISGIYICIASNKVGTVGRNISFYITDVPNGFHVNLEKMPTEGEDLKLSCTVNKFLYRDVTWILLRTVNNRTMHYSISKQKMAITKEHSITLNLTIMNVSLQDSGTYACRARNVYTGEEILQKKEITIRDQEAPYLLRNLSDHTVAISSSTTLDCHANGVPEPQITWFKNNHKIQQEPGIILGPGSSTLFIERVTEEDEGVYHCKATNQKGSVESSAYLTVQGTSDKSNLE
- assay_procedure: competition ELISA, biotinylated native VEGF as tracer, Flt-IgG captured by anti-human Fc
Readings of IC50 for the listed binders
Give the value; after it, write the unit.

LK-VRB-1s* (ligand) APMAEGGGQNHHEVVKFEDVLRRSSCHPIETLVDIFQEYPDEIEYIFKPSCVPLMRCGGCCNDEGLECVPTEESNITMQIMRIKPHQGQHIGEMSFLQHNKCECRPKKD    2700 nM

Q) // returns reported IC50 for input LK-VRB-2f (ligand, also called KDR-full) APMAEGGGQNHHEVVKFMDVYQRSYCHPIETLVDIFQEYPDEIEYIFKPSCVPLMRCGGCCNSEMRECVPTEESNITMQIMRIKPHQGQHIGEMSFLQHNKCECRPKKDRARQENPCGPCSERRKHLFVQDPQTCKCSCKNTDSRCKARQLELNERTCRCDKPRR
A) 19 nM
